- System: IL-1β release upon NLRP3 activation in phorbol 12-myristate 13-acetate (PMA)-differentiated THP-1 cells
- Assay Notes: THP-1 IC50 Determination Assay
- Assay type: cell-based
- Measurement Context: Homo sapiens, inhibition of IL-1β release, LPS, nigericin, ELISA
Structures can show the parent of a compound that is named as a salt.
Would you kindly list IC50 for each of these compounds?

// below: answered compounds
Compound: CC(=O)N1CCC(Cn2ccc3cc(-c4c(C)cc(Cl)cc4O)nnc32)CC1 [Compound 9]
IC50: 30 to 100 nM
--
Compound: CC(=O)N1CCC(Cn2cnc3cc(-c4c(C)cc(Cl)cc4O)nnc32)CC1 [Compound 72]
IC50: 30 to 100 nM
--
Compound: Cc1cc(C#N)cc(O)c1-c1cc2ccn(CC3CCN(C)CC3)c2nn1 [Compound 54]
IC50: 300 to 1000 nM
--
Compound: CC(=O)N1CCCCC1Cn1ccc2cc(-c3c(C)cc(Cl)cc3O)nnc21 (stereo not shown) [Compound 57]
IC50: 30 to 100 nM
--
Compound: COCCn1ccc2cc(-c3c(C)cc(Cl)cc3O)nnc21 [Compound 21]
IC50: 300 to 1000 nM

Quick one: give me IC50 for each item below, same order please.
1. Cc1cc(Cl)cc(O)c1-c1cc2ncn(C[C@@H]3CCN(C)C3)c2nn1 [Compound 75, hydrochloride]
2. Cc1cc(Cl)cc(O)c1-c1cc2ccn(CC3CCN(CC(F)F)CC3)c2nn1 [Compound 10, hydrochloride]
3. Cc1cc(Cl)cc(O)c1-c1cc2ccn(CC3CCC(=O)N3C)c2nn1 (stereo not shown) [Compound 65]
4. Cc1cc(Cl)cc(O)c1-c1cc2ccn(CC3CCN(C)C3=O)c2nn1 (stereo not shown) [Compound 66]
5. Cc1cc(Cl)cc(O)c1-c1cc2ccn(CC(=O)N3CCCC3)c2nn1 [Compound 30]

Solution:
100 to 300 nM
100 to 300 nM
30 to 100 nM
300 to 1000 nM
300 to 1000 nM

Quick one: give me IC50 for each item below, same order please.
1. Cc1cc(Cl)cc(O)c1-c1cc2ncn(CC3(F)CCN(C)CC3)c2nn1 [Compound 78, hydrochloride]
2. Cc1cc(Cl)cc(O)c1-c1cc2ccn(CC3(O)CCN(C)CC3)c2nn1 [Compound 56, hydrochloride]
3. CNC(=O)Cn1ccc2cc(-c3c(C)cc(Cl)cc3O)nnc21 [Compound 19]

Solution:
1. 30 to 100 nM
2. < 30 nM
3. 300 to 1000 nM

Sourced from patent US20250206745A1
